System: SK-OV-3 ovarian
assay: NCI tumour cell line growth inhibition, 48 h
Quick reference: TGI of the listed items.

compound	subject-of-test	TGI
CC(=O)OCC1OC(Oc2cc(C)c(O)cc2C/C=C(\C)CC/C=C(\C)C[C@@H](C=C(C)C)OC(C)=O)C(O)C(OC(C)=O)C1OC(C)=O (stereo partly specified)	SK-OV-3 ovarian	> 50 µM
CCSc1nnc(-c2ccccc2)nc1Cc1ccc(OC)cc1	SK-OV-3 ovarian	> 100 µM
c1cc2c(c(NC3=NCCN3)c1)CCCC2	SK-OV-3 ovarian	> 100 µM
Cn1cc(C2=C(c3c(S(C)=O)n(C)c4ccccc34)C(=O)NC2=O)c2ccccc21 (stereo unspecified)	SK-OV-3 ovarian	> 25 µM
CO/N=C(\C)c1cccc(Nc2nc3ccccc3c3occc23)c1	SK-OV-3 ovarian	27.1 µM
CCOC(=O)CC(=O)CSc1c(-c2ccccc2)c(=O)n(-c2ccccc2)c(=S)n1-c1ccccc1	SK-OV-3 ovarian	> 100 µM
ClCCCCOC1CCCCO1 (stereo unspecified)	SK-OV-3 ovarian	> 100 µM
O=C(N/N=C/c1ccc(Cl)cc1)c1ccccc1Nc1ccccc1C(=O)N/N=C/c1ccc(Cl)cc1	SK-OV-3 ovarian	> 100 µM
O=C(NC1C(=O)NNC1c1ccccc1Cl)c1ccccc1 (stereo unspecified)	SK-OV-3 ovarian	> 100 µM
N#CC1CCCCC1NC1(C#N)CCCCC1 (stereo unspecified)	SK-OV-3 ovarian	> 100 µM
Cc1cc2c(cc1Cl)SC(C(=O)c1ccc(Cl)c(Cl)c1)NS2(=O)=O (stereo unspecified)	SK-OV-3 ovarian	91.4 µM
